- Test system: Rattus norvegicus
- Test Method Notes: Toxicity in glucocorticoid-induced Wistar rat osteoporosis model assessed as lymph level at 30 mg/kg/day, po administered six times a week for 3 months (reference value: 50.35 +/- 12.96%)
- Type: organism-based
- Set-up: route oral
- Run Conditions: in vivo
Quantity Name: Activity (%)
Number in %, nothing else.

Recorded results for 5 compounds are shown here.
CC(=O)c1cc2ccc(C(=O)O)cc2s1 : 35.72
CC(=O)c1cc2cc(C(=O)O)ccc2s1 : 36.73
CCOC(=O)c1cc2ccc(C(=O)OC)cc2s1 : 46.39
CCOC(=O)c1cc2ccc(OC)cc2o1 : 46.18
CCOC(=O)c1cc2cc3c(cc2s1)OCO3 : 46.29

Quick one: Activity of COC(=O)c1ccc2cc(C(C)=O)sc2c1 ?
34.98

Now consider CC(=O)c1cc2ccccc2s1 and answer again.
39.85

Now consider CCOC(=O)c1ccc2cc(C(=O)/C=C/c3ccccc3)sc2c1 and answer again.
43.43

Recorded values, source ChEMBL document CHEMBL3414511.
